System: TNF-α
Experiment: LPS stimulation of TNF production by U937 cells
Type: cell-based, human
Settings: Homo sapiens, U-937, TNF production, LPS-stimulated human U937 cells; read-out: U937 Cell IC50
pIC50: −log10 of the molar value.
observation.type: pIC50

> print(dat)
                               given.smiles  value.modifier  assay.value
1  Cc1onc(-c2c(F)cccc2Cl)c1C(=O)NCc1[nH]nc(-c2ccc(F)cc2)c1-c1ccncc1               <         6.00
2  O=S(=O)(NCc1[nH]nc(-c2ccc(F)cc2)c1-c1ccncc1)c1ccc(F)cc1F               =         5.66
3  COc1ccc(S(=O)(=O)NCc2[nH]nc(-c3ccc(F)cc3)c2-c2ccncc2)cc1               =         5.75
4  O=S(=O)(Cc1ccccc1)NCc1[nH]nc(-c2ccc(F)cc2)c1-c1ccncc1               =         6.68
5  CC(C)c1ccc(S(=O)(=O)NCc2[nH]nc(-c3ccc(F)cc3)c2-c2ccncc2)cc1               <         6.00
